This section presents sequences with their documented Kd values.
Target: HLA-A2 molecule (the product of HLA-A*0206 gene) (Homo sapiens, UniProt P04439, D140Y/D185E/D98H/E176V/E277Q/F33Y/G131W/G231S/I119V/I121R/I166T/I218V/L300P/L318F/N151K/N90K/P208A/P217A/Q86G/Q94H/R138H/R169H/T345S)
Experiment: cell-based
No end group written: not given here.
# value in nM; strip the unit string

// Kd lookup, key: IVLEHGSCV [compound 46]
952

And the next one, HVLGRLITV [compound 45] ?
557

And the next one, LALLAAFKV [compound 43] ?
341

And the next one, ALVAFLRFL [SEQ ID NO 21] ?
1080

And the next one, QILEENVEV [compound 50] ?
2480

And the next one, SVIEKMEAL [compound 48] ?
422

And the next one, YVVIAILTV [compound 47] ?
1380

And the next one, LVISGLFPV [compound 41] ?
245

----------
Target: HLA-A2 molecule (the product of HLA-A*0201 gene) (Homo sapiens, UniProt P04439, D140Y/D185E/D98H/E176V/E277Q/G131W/G231S/I119V/I121R/I166T/I218V/L300P/L318F/N151K/N90K/P208A/P217A/Q86G/Q94H/R138H/R169H/T345S)
Test: Binding experiment of the peptides to an HLA-A0201 molecule (JY cells, flow cytometry)
Method: After neutralization, a reassemble experiment was performed. The above JY cells and purified β 2 m were added to a serial dilution of the peptide whose binding affinity was to be measured. Then, the mixture was incubated on ice for 4 hours.
No end group written: not given here.
This section presents sequences with their documented pKd values.
Note: pKd values are expressed as the negative base-10 logarithm of concentration in M.

// pKd lookup, key: FQPESPSKL [compound 36]
6.31

----------
Target: HLA-A2 molecule (the product of HLA-A*0201 gene) (Homo sapiens, UniProt P04439, D140Y/D185E/D98H/E176V/E277Q/G131W/G231S/I119V/I121R/I166T/I218V/L300P/L318F/N151K/N90K/P208A/P217A/Q86G/Q94H/R138H/R169H/T345S)
Assay: Binding experiment of the peptides to an HLA-A0201 molecule (JY cells, flow cytometry)
pKd: −log10 of the molar value. No end group written: not given here.
Entry flag: class 1 if pKd reaches 6; class 0 if it does not.

Answered examples (8):
{"residue-codes": "IVLEHGSCV [compound 27]", "label-class": "class 0"}
{"residue-codes": "NLVRLQSGV [compound 30]", "label-class": "class 0"}
{"residue-codes": "SLRPQPTEL [compound 34]", "label-class": "class 0"}
{"residue-codes": "ILIRTGLLV [compound 33]", "label-class": "class 1"}
{"residue-codes": "ELPETLETL [compound 40]", "label-class": "class 1"}
{"residue-codes": "LLFKTENGV [compound 28]", "label-class": "class 1"}
{"residue-codes": "ALHQVFGAI [compound 38]", "label-class": "class 1"}
{"residue-codes": "PLNEAIMAV [compound 29]", "label-class": "class 1"}

Field: next sequence
I'd appreciate it if you could say whether YMPSVIEKM [compound 39] has pKd at least equal to 6.
class 1

Data provenance is patent US8324345B2.
